Each entry below carries its reported GI50.
System: SK-OV-3
Measurement protocol: NCI tumour cell line growth inhibition, 48 h
Calls of active or inactive are those of the source. No stated cut-off is given here; in the data, active = GI50 up to about 1.1 µM and inactive = higher.

Reference set (4 entries):
Compound: COc1ccc(NC(=S)N/N=C/c2cccc(C)n2)cc1
GI50: 4.61 µM (inactive)

Compound: CN(C)CCCN1c2ccccc2C(C)(C)c2ccccc21 [DIMETACRINE]
GI50: 13.9 µM (inactive)

Compound: CCCC(O)[C@@]1(CC)CC(C)C(O)(C2(C)C[C@H](C)[C@@H](C(CC)C(=O)C(C)[C@@H](O)[C@H](C)C3OC(O)(C(CC)C(=O)O)[C@@H](C)C(O)C3CC)O2)O1 (stereo not given in full)
GI50: 2.15 µM (inactive)

Compound: Cc1ccc(S(=O)(=O)Nn2c(-c3ccccc3)c(C#N)c(-c3ccc([N+](=O)[O-])cc3)c(C#N)c2=O)cc1
GI50: > 100 µM (inactive)

Problem: Consider the compound Cc1c(-c2ccccc2)n[nH]c1NC1(C)C(=O)N(/N=C/c2ccccc2)N=C1c1ccccc1 (stereo not given) and give its measured GI50.
Result: > 100 µM (inactive)

----------
System: HOP-92
Measurement protocol: NCI tumour cell line growth inhibition, 48 h
Active and inactive are the calls of the source. Cut-off read from the data, not from the text of the source: active = GI50 up to about 1.1 µM and inactive = higher.
Each entry below carries its reported GI50.

Problem: Consider the compound CCCC(=O)OCC1OC(n2ccc(N)nc2=O)C(OC(=O)CCC)C1OC(=O)CCC (stereo unspecified) and give its measured GI50.
Result: > 45.1 µM (inactive)

Problem: Follow-up item: "Cc1ccc(S(=O)(=O)NC(=O)N[C@@H](Cc2c[nH]cn2)C(=O)O)cc1"
Result: > 100 µM (inactive)

Problem: Follow-up item: CCCCCC1C2C(=O)NC(=O)C1C(=O)NC2=O (stereo unspecified)
Result: > 100 µM (inactive)

Problem: Follow-up item: "CCOC(=O)/C(=C\c1cccs1)P(=O)(OCC)OCC"
Result: 27.6 µM (inactive)

Problem: Follow-up item: "S=C(N/N=C/c1ccccc1)NC12CC3CC(CC(C3)C1)C2"
Result: 6.18 µM (inactive)

Problem: Follow-up item: "COc1ccc2c(c1)[n+]([O-])c(C(=O)CC(=O)C(=O)Nc1cccc(Cl)c1C)c(C)[n+]2[O-]"
Result: > 100 µM (inactive)

----------
System: CAKI-1
Measurement protocol: NCI tumour cell line growth inhibition, 48 h
Activity calls are given as the source filed them. Cut-off read from the data, not from the text of the source: active = GI50 up to about 1.1 µM and inactive = higher.
Each entry below carries its reported GI50.

Reference set (3 entries):
Input smiles: COc1c(-c2nc3ccc(N4CCN(C)CC4)nc3[nH]2)cc(OC)c2c1nc(CO)n2C
GI50: > 100 µM (inactive)
--
Input smiles: CS/C(=C(\S)c1ccccc1)c1ccccc1
GI50: > 100 µM (inactive)
--
Input smiles: O=C1c2cc3c(cc2CC12Cc1ccccc1C2)CCC3
GI50: 15.5 µM (inactive)

Problem: Form field - read-out: GI50; system: CAKI-1; submitted item: "CC(C)[Si](OC1=C(C(=O)N(C)c2ccccc2Cl)CCCC1)(C(C)C)C(C)C"
Result: 14.3 µM (inactive)

Problem: Follow-up item: "O=C1/C(=C/c2ccc(Cl)cc2)Oc2ccccc21"
Result: 2.76 µM (inactive)

Problem: Follow-up item: "C=Cc1nc(C#N)c(N)o1"
Result: > 100 µM (inactive)
